Tested on: Thermotoga maritima
assay comment: Inhibition of ADP-BODIPY binding to Thermotoga maritima HK853 at 100 uM by fluorescence polarization assay
assay endpoint: inhibition (%)
Answers are plain numbers, in %.

Below, each entry is followed by its recorded inhibition result.
compound: O=C1C(c2c[nH]c3ccccc23)=C(c2c[nH]c3ccccc23)C(=O)N1O
inhibition / %: 81.2

compound: COc1cc[nH]c1/C=C1\C(=O)Nc2ccc([N+](=O)[O-])c(C3CC[C@@H](O)C3)c21 (stereo partly specified)
inhibition / %: 66.3

compound: O=C1N=C(N[C@H](CO)c2ccccc2)S/C1=C\c1ccc2ncccc2c1
inhibition / %: 65.5

compound: OCCn1c(-c2ccncc2)c(-c2ccc(F)cc2)c2ncccc21
inhibition / %: 5.8

compound: CONC1=NC(=O)/C(=C/c2ccc3ncccc3c2)S1
inhibition / %: 90.1

[Q] Can you share its inhibition? I mean this compound: Cc1cc(C)c2c(n1)sc1c(N)ncnc12
[A] 73.7

The reported numbers originate from ChEMBL document CHEMBL4270516.
